tested on: A549; test: Cell viability (CellTiter-Blue, 72 h), A549 lung cancer cells; type: cell-based; conditions: Homo sapiens, A549, 72 h, read-out: Cell line IC50 value
Reported pIC50 values for the following compounds.
Please note pIC50 is a logarithmic value: minus log10 of concentration in mol/L. Answer with that number alone.

INSERT INTO assay_data (compound, experimental_value) VALUES
  ('CCCc1cc(O)c2c(c1)OC(C)(C)[C@@H]1CCC(C)=C[C@@H]21 [THCV, Tetrahydrocannabivarin]', 5.13),
  ('CCCCCc1cc(O)c(C/C=C(\C)CCC=C(C)C)c(O)c1', 5.37),
  ('CCCCCc1cc(O)c2c(c1)OC(C)(C)[C@@H]1CCC(C)=C[C@@H]21 [THC, Tetrahydrocannabinol, reference compound]', 5.26),
  ('CCCCCc1cc(O)c(C/C=C(\C)CCC=C(C)C)c(O)c1C(=O)O', 5.21);

Prompt line: Endpoint output: pIC50 of CC(=O)O[C@@]12CO[C@@H]1C[C@H](O)[C@@]1(C)C(=O)[C@H](O)C3=C(C)[C@@H](OC(=O)[C@H](O)[C@@H](NC(=O)OC(C)(C)C)c4ccccc4)C[C@@](O)([C@@H](OC(=O)c4ccccc4)[C@H]21)C3(C)C [Taxotere, Docetaxel, reference compound] . Value?
Response line: 9.22

Prompt line: Endpoint output: pIC50 of "C=C(C)[C@@H]1CCC(C)=C[C@H]1c1c(O)cc(CCCCC)cc1O" . Value?
Response line: 5.49

Prompt line: Endpoint output: pIC50 of "C=C(C)[C@@H]1CCC(C)=C[C@H]1c1c(O)cc(CCCCC)c(C(=O)O)c1O" . Value?
Response line: 5.07

----------
system: RT112; test: Cell viability (CellTiter-Blue, 72 h), RT112 bladder cancer cells; assay type: cell-based; settings: Homo sapiens, RT-112; RT112, 1% FBS, 72 h; read-out: Cell line IC50 value
Value Type: IC50 (µM)
API: value field is a number in µM; no unit string.

INSERT INTO assay_data (molecule, unit_text, experimental_value) VALUES
  ('C=C(C)[C@@H]1CCC(C)=C[C@H]1c1c(O)cc(CCCCC)cc1O [CBD, Cannabidiol]', 'µM', 2),
  ('CCCCCc1cc(O)c(C/C=C(\C)CCC=C(C)C)c(O)c1C(=O)O [CBGA, Cannabigerolic acid]', 'µM', 9.8),
  ('C=C(C)[C@@H]1CCC(C)=C[C@H]1c1c(O)cc(CCCCC)c(C(=O)O)c1O [CBDA, Cannabidiolic acid]', 'µM', 8.2),
  ('CCCCCc1cc(O)c2c(c1)OC(C)(C)[C@@H]1CCC(C)=C[C@@H]21 [THC, Tetrahydrocannabinol, reference compound]', 'µM', 3.6),
  ('CCCCCc1cc(O)c(C/C=C(\C)CCC=C(C)C)c(O)c1 [CBG, Cannabigerol]', 'µM', 2.5);

Turning now to a further molecule:
Prompt line: Missing value: IC50, RT112, entry CCCc1cc(O)c2c(c1)OC(C)(C)[C@@H]1CCC(C)=C[C@@H]21 [THCV, Tetrahydrocannabivarin] . Fill in?
Response line: 4.7

----------
system: Mia-Pa-Ca-2; test: Cell viability (CellTiter-Blue, 72 h), Mia-Pa-Ca-2 pancreatic cancer cells; type: cell-based; details: Homo sapiens, MIA PaCa-2, read-out: Dm (median effect dose)
Value Type: pIC50
Please note pIC50 is a logarithmic value: minus log10 of concentration in mol/L. Answer with that number alone.

Worked examples, 5 compounds total:
INSERT INTO measurements (compound, experimental_value) VALUES
  ('CCCc1cc(O)c2c(c1)OC(C)(C)[C@@H]1CCC(C)=C[C@@H]21 [THCV, Tetrahydrocannabivarin]', 5.32),
  ('C=C(C)[C@@H]1CCC(C)=C[C@H]1c1c(O)cc(CCCCC)c(C(=O)O)c1O [CBDA, Cannabidiolic acid]', 5.15),
  ('CCCCCc1cc(O)c(C/C=C(\C)CCC=C(C)C)c(O)c1C(=O)O [CBGA, Cannabigerolic acid]', 5.06),
  ('CCCCCc1cc(O)c2c(c1)OC(C)(C)[C@@H]1CCC(C)=C[C@@H]21 [THC, Tetrahydrocannabinol, reference compound]', 5.58),
  ('CCCCCc1cc(O)c(C/C=C(\C)CCC=C(C)C)c(O)c1 [CBG, Cannabigerol]', 5.69);

Turning now to a further compound:
Prompt line: Endpoint output: pIC50 of C=C(C)[C@@H]1CCC(C)=C[C@H]1c1c(O)cc(CCCCC)cc1O [CBD, Cannabidiol] . Value?
Response line: 5.70

----------
test system: BT474; assay: Cell viability (CellTiter-Blue, 72 h), phytocannabinoids alone and in combination, BT474 breast cancer cells; format: cell-based; details: Homo sapiens, BT-474, BT474, 1% FBS; Calcusyn median-effect analysis; read-out: Dm (median effect dose)
Could you mark each record 1 if its IC50 falls strictly under 30 µM, and 0 if it equals or exceeds it?

Study these solved cases before continuing.
INSERT INTO results (molecule, experimental_system, class_label) VALUES
  ('C=C(C)[C@@H]1CCC(C)=C[C@H]1c1c(O)cc(CCCCC)cc1O', 'BT474', 1),
  ('CCCCCc1cc(O)c(C/C=C(\C)CCC=C(C)C)c(O)c1', 'BT474', 1),
  ('CCCCCc1cc(O)c(C/C=C(\C)CCC=C(C)C)c(O)c1C(=O)O', 'BT474', 1),
  ('CCCc1cc(O)c2c(c1)OC(C)(C)[C@@H]1CCC(C)=C[C@@H]21 [THCV, Tetrahydrocannabivarin]', 'BT474', 1);

Prompt line: Does the reported IC50 of the following molecule sit strictly below 30 µM? "C=C(C)[C@@H]1CCC(C)=C[C@H]1c1c(O)cc(CCCCC)c(C(=O)O)c1O"
Response line: 0

----------
tested on: MDA-MB-231; experiment: Cell viability (CellTiter-Blue, 72 h), MDA-MB-231 breast cancer cells; assay type: cell-based; details: Homo sapiens, MDA-MB-231, 72 h, read-out: IC50 values, MDA-MB-231, 1% FBS, 72 h
pIC50: −log10 of the molar value.
Outcome: Yes for pIC50 of at least 5; No for anything lower.

Study these solved cases before continuing.
INSERT INTO measurements (compound, class_label) VALUES
  ('CCCCCc1cc(O)c(C/C=C(\C)CCC=C(C)C)c(O)c1C(=O)O [CBGA, Cannabigerolic acid]', 'No'),
  ('CCCCCc1cc(O)c(C/C=C(\C)CCC=C(C)C)c(O)c1 [CBG, Cannabigerol]', 'Yes');

Prompt line: Is the recorded value of pIC50 equal to or greater than 5 for this compound? C=C(C)[C@@H]1CCC(C)=C[C@H]1c1c(O)cc(CCCCC)c(C(=O)O)c1O [CBDA, Cannabidiolic acid]
Response line: No

Prompt line: Is the recorded value of pIC50 equal to or greater than 5 for this compound? CCCc1cc(O)c2c(c1)OC(C)(C)[C@@H]1CCC(C)=C[C@@H]21 [THCV, Tetrahydrocannabivarin]
Response line: No

Prompt line: Is the recorded value of pIC50 equal to or greater than 5 for this compound? CC(=O)O[C@@]12CO[C@@H]1C[C@H](O)[C@@]1(C)C(=O)[C@H](O)C3=C(C)[C@@H](OC(=O)[C@H](O)[C@@H](NC(=O)OC(C)(C)C)c4ccccc4)C[C@@](O)([C@@H](OC(=O)c4ccccc4)[C@H]21)C3(C)C [Taxotere, Docetaxel, reference compound]
Response line: Yes

----------
Tested on: OVCAR3
Assay: Cell viability (CellTiter-Blue, 72 h), OVCAR3 ovarian cancer cells
Format: cell-based
Details: Homo sapiens, OVCAR-3; OVCAR3 cells, 1% FBS; read-out: Dm (potency, median effect)
Method: The following cell lines were tested in this example: Lung Cancer (A549, NCI-H460); Pancreatic cancer (PANC1, Mia-Pa-Ca-2); Melanoma (WM115, A375); Ovarian cancer (OVCAR3, SKOV3); Gastric cancer (MKN45, HGC-27); Renal cancer (ACHN) and Bladder Cancer (RT112). […] The plates were incubated at 37° C., 5% humidified CO2. Fluorescence was measured using a Flex II Station plate reader (570 nm excitation wavelength, 600 nm emission wavelength, 590 nm cut-off) after 3 h. […]
Value Type: pIC50
Please note pIC50 is a logarithmic value: minus log10 of concentration in mol/L. Answer with that number alone.

INSERT INTO results (molecule, value_type, experimental_value) VALUES
  ('C=C(C)[C@@H]1CCC(C)=C[C@H]1c1c(O)cc(CCCCC)cc1O', 'pIC50', 5.67);

Prompt line: Endpoint output: pIC50 of CCCCCc1cc(O)c2c(c1)OC(C)(C)[C@@H]1CCC(C)=C[C@@H]21 [THC, Tetrahydrocannabinol, reference compound] . Value?
Response line: 5.35

Prompt line: Endpoint output: pIC50 of "C=C(C)[C@@H]1CCC(C)=C[C@H]1c1c(O)cc(CCCCC)c(C(=O)O)c1O" . Value?
Response line: 5.26

Prompt line: Endpoint output: pIC50 of CCCc1cc(O)c2c(c1)OC(C)(C)[C@@H]1CCC(C)=C[C@@H]21 [THCV, Tetrahydrocannabivarin] . Value?
Response line: 5.19

Prompt line: Endpoint output: pIC50 of "CCCCCc1cc(O)c(C/C=C(\C)CCC=C(C)C)c(O)c1" . Value?
Response line: 5.36

Prompt line: Endpoint output: pIC50 of "CCCCCc1cc(O)c(C/C=C(\C)CCC=C(C)C)c(O)c1C(=O)O" . Value?
Response line: 5.19
